Numbers sourced from PubChem BioAssay AID588589.

# Tested on: Fam108b (ABHD17B) [Mus musculus], recombinant soluble
# test: inhibition of soluble recombinant Fam108b, SAR follow-up, biochemical, gel-based ABPP, soluble form (AID 588589)
# measurement parameters: fluorophosphonate probe, at 5 µM, stronger effect = higher value
Each entry below lists one item and its recorded inhibition value.
Note: unit % is implicit; provide only the numeric part.

Here is how some compounds turned out for inhibition.
O=c1oc(-c2ccc(F)cc2)nc2scc(-c3ccc(Br)cc3)c12
0
Cc1nc2c(oc3ccccc32)c(=O)o1
25
O=c1oc(-c2ccccc2F)nc2c1cnn2-c1ccccc1
75
Cc1noc2nc(-c3ccccc3Cl)oc(=O)c12
5
O=c1oc(COc2ccccc2Cl)nc2ccccc12
10

Look up inhibition for this compound: Cc1nsc2nc(-c3cc(Cl)nnc3Cl)oc(=O)c12
10

Also need COc1cc(-c2nc3scc(-c4ccccc4)c3c(=O)o2)cc(OC)c1OC , thanks.
0

Also need O=c1oc(/C=C/c2ccccc2)nc2scc(-c3cccs3)c12 , thanks.
10

Also need COc1ccc(-c2csc3nc(-c4ccccc4Br)oc(=O)c23)cc1 , thanks.
0

Also need O=c1oc(-c2ccco2)nc2cccc(F)c12 , thanks.
5

---

# System: Fam108b (ABHD17B) [Mus musculus], recombinant soluble
# test: inhibition of soluble recombinant Fam108b, SAR follow-up, biochemical, gel-based ABPP, soluble form (AID 588589)
# measurement parameters: fluorophosphonate probe, at 5 µM
Calls of active or inactive are those of the source. The rule behind the calls is not given here.
Respond using exactly one of the listed classes: t (active), f (inactive)

COc1cc2nc(-c3c(OC)cccc3OC)oc(=O)c2cc1OC
f
Cc1nsc2nc(-c3cc([N+](=O)[O-])ccc3Cl)oc(=O)c12
f
O=c1oc(-c2ccccc2F)nc2scc(-c3ccc(Br)cc3)c12
f
Cc1nsc2nc(-c3cc(S(C)(=O)=O)ccc3Cl)oc(=O)c12
f
CCc1nsc2nc(-c3ccccc3Cl)oc(=O)c12
f
Cc1nsc2nc(-c3cc(S(=O)(=O)N4CCCCC4)ccc3Cl)oc(=O)c12
f

Identify the outcome logged in this assay for the compound shown: Cc1ccc(-c2nc3scc(-c4ccc(Br)cc4)c3c(=O)o2)cc1
f

Also need Cc1ccc(-c2nc3sc(C)c(C)c3c(=O)o2)cc1 , thanks.
f

Also need CCN(CC)S(=O)(=O)c1ccc(Cl)c(-c2nc3snc(C)c3c(=O)o2)c1 , thanks.
f

Also need O=C1CCC(=O)N1c1ccc(-c2nc3scc(-c4ccccc4)c3c(=O)o2)cc1 , thanks.
t

Also need COc1ccc(-c2csc3nc(-c4ccc(Cl)cc4)oc(=O)c23)cc1 , thanks.
f

---

# Tested on: Fam108b (ABHD17B) [Mus musculus], recombinant soluble
# test: inhibition of soluble recombinant Fam108b, SAR follow-up, biochemical, gel-based ABPP, soluble form (AID 588589)
# measurement parameters: fluorophosphonate probe, at 5 µM
Activity calls are given as the source filed them. No rule for the calls is given here.
Respond using exactly one of the listed classes: active, inactive

Reference set, count: 3
CC(C)(C)c1ccc(-c2nc3sc4c(c3c(=O)o2)CCCC4)cc1
inactive
COc1ccc(-c2csc3nc(-c4cccc5ccccc45)oc(=O)c23)cc1OC
inactive
COc1ccc(-c2csc3nc(-c4ccc(F)cc4)oc(=O)c23)cc1
inactive

Identify the outcome logged in this assay for the molecule shown: O=c1oc(-c2ccc(C(F)(F)F)cc2)nc2c1oc1ccc(Cl)cc12
inactive

Also need O=c1oc(-c2ccc(Br)cc2)nc2c1cnn2-c1ccccc1 , thanks.
inactive

Also need CC(C)(C)c1ccc(-c2nc3scc(-c4cccs4)c3c(=O)o2)cc1 , thanks.
inactive

Also need O=c1oc(-c2cccc(Br)c2)nc2scc(-c3ccccc3)c12 , thanks.
inactive

Also need CCCc1nsc2nc(-c3ccccc3Cl)oc(=O)c12 , thanks.
inactive
